I'd appreciate it if you could supply MC3R cAMP (EC50) values for the items below.
target: human MC3R (human, UniProt P41968 1-323); assay: cell-based or functional assay
Sequence (P41968 whole entry): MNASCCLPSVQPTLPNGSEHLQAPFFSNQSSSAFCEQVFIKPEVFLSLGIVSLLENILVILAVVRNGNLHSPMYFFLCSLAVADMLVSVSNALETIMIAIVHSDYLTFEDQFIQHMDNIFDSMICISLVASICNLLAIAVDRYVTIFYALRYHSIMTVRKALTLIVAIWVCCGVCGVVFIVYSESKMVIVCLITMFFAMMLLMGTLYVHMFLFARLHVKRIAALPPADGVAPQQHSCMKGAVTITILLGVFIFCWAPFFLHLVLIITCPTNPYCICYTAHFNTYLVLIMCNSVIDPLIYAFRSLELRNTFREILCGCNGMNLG
Non-standard residues stand in square brackets, D forms with d. PKcap1 = N-terminal cap C18 diacid-γGlu-mPEG2; PKcap2 = N-terminal cap Aryl(4-I)-Gly-mPEG2; Nle = CCCC[C@H](N)C(=O)O

Need MC3R cAMP (EC50), item PKcap2-G[Nle][dA]HFR[dW]DR[dF]G-OH [CTX-1154]
5.8 nM

Need MC3R cAMP (EC50), item PKcap1-G[dY]V[Nle][dA]HFR[dW]D[dR]FG-OH [CTX-1155]
3130 nM

Need MC3R cAMP (EC50), item Ac-[Nle][dA]HFR[dW]KRFG-OH (SMILES CCCC[C@H](NC(C)=O)C(=O)N[C@H](C)C(=O)N[C@@H](Cc1c[nH]cn1)C(=O)N[C@@H](Cc1ccccc1)C(=O)N[C@@H](CCCNC(=N)N)C(=O)N[C@H](Cc1c[nH]c2ccccc12)C(=O)N[C@@H](CCCCN)C(=O)N[C@@H](CCCNC(=N)N)C(=O)N[C@@H](Cc1ccccc1)C(=O)NCC(=O)O) [CTX-1533]
14.2 nM
